- system.name: GRB14 (Homo sapiens, UniProt Q14449)
- Construct: the DNA-tagged SH2 domain concentrations used in this study were <0.1 nM; made in house; host or cells: HEK293 (transient transfection; unpurified extract)
- Sequence (Q14449 439-535 limits assumed): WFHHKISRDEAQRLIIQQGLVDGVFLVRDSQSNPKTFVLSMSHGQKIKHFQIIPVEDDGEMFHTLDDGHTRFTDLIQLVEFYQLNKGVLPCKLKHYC
- experiment.description: biochemical
- Format: binding
- run.parameters: primary screen, 10 μM; read-out: percent of DMSO vehicle control
measure: remaining activity at 10 µM
Put down the number, then write its unit next to it.

Prompt: Recorded remaining activity at 10 µM for `CC(C)(C)[C@H](NC(=O)/C=C/c1ccc(OP(=O)(O)O)cc1)C(=O)N1CCC[C@H]1C(=O)N(c1ccccc1)c1ccc(I)cc1` , please?
Completion: 79.3%

Prompt: Recorded remaining activity at 10 µM for `C/C(=C\C(=O)N[C@H](C(=O)N1CCC[C@H]1C(=O)N(c1ccccc1)c1ccc(I)cc1)C(C)(C)C)c1ccc(OP(=O)(O)O)cc1` , please?
Completion: 24.5%

Prompt: Recorded remaining activity at 10 µM for `O=C(CCl)Nc1cccc(CNC(=O)[C@H](Cc2ccc(OP(=O)(O)O)cc2)NC(=O)Cc2ccc(F)cc2)c1` , please?
Completion: 62.1%

Prompt: Recorded remaining activity at 10 µM for `O=C(COc1ccc2cc(C(=O)Nc3ccccc3)ccc2c1)NCc1ccc(OP(=O)(O)O)c(OP(=O)(O)O)c1` , please?
Completion: 55.1%
